target.entity: Complement C1q (Homo sapiens, UniProt P02745;P02746;P02747 P02745:23-245,P02746:28-253,P02747:29-245)
Sequence (P02745 23-245, chain 1 of 3): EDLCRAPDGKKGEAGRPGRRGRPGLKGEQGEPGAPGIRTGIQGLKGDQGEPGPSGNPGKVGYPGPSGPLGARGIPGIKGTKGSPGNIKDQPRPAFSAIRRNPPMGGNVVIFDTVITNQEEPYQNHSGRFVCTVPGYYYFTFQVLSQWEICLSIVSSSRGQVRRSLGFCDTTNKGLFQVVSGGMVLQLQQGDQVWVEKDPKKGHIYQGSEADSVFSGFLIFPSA
Sequence (P02746 28-253, chain 2 of 3): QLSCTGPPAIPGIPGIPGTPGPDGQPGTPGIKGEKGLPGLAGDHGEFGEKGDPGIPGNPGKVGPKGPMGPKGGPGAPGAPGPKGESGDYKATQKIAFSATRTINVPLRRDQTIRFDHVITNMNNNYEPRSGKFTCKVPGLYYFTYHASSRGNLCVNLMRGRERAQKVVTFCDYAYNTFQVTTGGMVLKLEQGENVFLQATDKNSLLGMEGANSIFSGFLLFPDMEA
Sequence (P02747 29-245, chain 3 of 3): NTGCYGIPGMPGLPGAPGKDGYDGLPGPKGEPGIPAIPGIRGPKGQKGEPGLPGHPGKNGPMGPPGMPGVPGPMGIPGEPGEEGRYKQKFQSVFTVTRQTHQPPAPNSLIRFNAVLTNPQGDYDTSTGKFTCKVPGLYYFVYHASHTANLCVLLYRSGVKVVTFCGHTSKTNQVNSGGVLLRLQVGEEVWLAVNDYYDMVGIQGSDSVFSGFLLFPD
run.description: filter; MgPBS, 37 C; still binds C1q on immune complexes; competed by SAP, beta-amyloid, CRP and A-chain 14-26 peptide
measurement.conditions: tags: Quidel; chain copies: 6; label: 32P
measured.attribute: Kd (nM)

binder | result.value
clone 50 (ssRNA, 2'-NH2 C and U) RNA: GGGAGGACGAUGCGGGUGGAGUGGAGGUAUAACGGCCGGUAGCGCAUCCCACUCGGGUCUGCGGUAGACGACUCGCCCGA | 0.979
